- Tested on: human breast cancer cell line MCF-7
- assay comment: Growth inhibition of MCF-7 in vitro
- Format: cell-based
- applied conditions: Homo sapiens, MCF7; MCF-7, 96 hours of exposure, RPMI1640 with 2% FBS
measure name: IC50
Reply with the number and its unit after it.

The molecule CC1(C)CCC(C)(C)c2cc(NC(=O)c3ccc(C(=O)O)cc3)ccc21 [Am80, tamibarotene] , when measured on human breast cancer cell line MCF-7, yielded IC50 of 1000 nM
